ASSAYED_TARGET: T1, Bi-SEQ ID NO: 4, *H**Glu(Bi-PEG)*…laTCSYEEA*NH2 (disulfide 6-11)
T1 construct: Synthetic peptide; 12-27 of mature prothrombin with Gla at 20
T1 peptide: {Glu(Bi-PEG)(3)}-NLERECVE[Gla]TCSYEEA-NH2
EXPERIMENT_DESCRIPTION: ECL assay (Elecsys 2010), ruthenylated antibody and biotinylated peptide, streptavidin beads
Bridge positions count the residues as written; N and C are the ends. Square brackets hold non-standard residues; d marks the D form. Primed or numbered codes have the meaning given here. Glu(Bi-PEG)(3) = N-terminal added Glu biotin-linker residue; Gla = N[C@@H](CC(C(=O)O)C(=O)O)C(=O)O
ASSAY_READOUT: reactivity (signal normalized to Bi-SEQ ID NO:1) (%)
Report as a plain number; the unit % is understood.

For this binder ( monoclonal anti-PIVKA-II antibody 9A6 (antibody, V domains shown, Recombinant rabbit IgG from B-cell cloning, expressed in HEK cells) VH: QSVEESGGRLITPGTPLTLTCTVSGFDLSRYAVGWVRQAPGKGLEYIGLIVSDGRTYYASWAKGRFTVSKTSSTTVDLKMTSPTAGDTATYYCYRNVSLWGQGTLVSVSS VL: DVVMTQTPSSVEAAVGGTVTIKCQASQSIGSNLAWYQQKPGQPPKLLIYSASTLASGVPSRFSGSGSGTEFTLTFSGVQCGDAATYFCQSYAGVSANIFYYSFGGGTEVVVM ), measured reactivity (signal normalized to Bi-SEQ ID NO:1) is 78

Sourced from patent US20230055005A1
